Each entry below lists one item and its recorded Phage binding ELISA signal, Anti-PSMA Fab with PSMA antigen value.
Biological target: T1, Anti-PSMA Fab
T1 construct: also called 006 PSMA Fab
Experiment: clonal phage ELISA on captured PSMA Fab, wells pre-incubated with PSMA antigen as competitor, anti-M13-HRP detection;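 further: crude clonal phage supernatants added without washing after the PSMA preincubation, comparison wells received blocking buffer alone without PSMA, bound phage read after washing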
Where no end group is shown, it is not given here.
Please give the numeric answer without any surrounding text.

Worked cases, Phage binding ELISA signal, Anti-PSMA Fab with PSMA antigen given:
binder	endpoint result
EMIRCEPRWMCSGF (cysteine pairing not given here; also: displayed on phage as fusion to pIII, junction not given here, Clone of the Peptide-180 optimisation library, tested as clonal phage supernatant) [Phage-3786]	0.0656
VSQLCIPEWMCIGI (Clone of the Peptide-180 optimisation library, tested as clonal phage supernatant) [Phage-3790]	0.08

Please give the measured Phage binding ELISA signal, Anti-PSMA Fab with PSMA antigen for this binder: VEYLCKPVWMCQGF (Clone of the Peptide-180 optimisation library, tested as clonal phage supernatant) [Phage-3797]
0.0609

Taken from patent US20260242478A1.
